experiment: Drug degradation assessed as compound activity lost at 3.3 uM measured every 30 mins of 2.5 hrs in presence of Dengue Virus 2 NS2B-NS3 protease; type: physicochemical; settings: Dengue virus 2, Dengue virus 2 NS2B-NS3 protease; read-out: Drug degradation
Record form. Attribute: metabolised at 2.5 h, 3.3 µM. Fill in for each entry.
Number only, in %; omit the unit.

Dear colleague, please send me the reported metabolised at 2.5 h, 3.3 µM for CC(C)C[C@@H]1NC(=O)[C@H](CCCCN)NC(=O)[C@H](CCCNC(=N)N)NC(=O)C(CCCCN)NC(=O)CNC(=O)[C@@H](N)CSSC[C@@H](C(=O)O)NC1=O (single isomer, unassigned) when you can.
50

Supply recorded metabolised at 2.5 h, 3.3 µM for N=C(N)NCCC[C@@H]1NC(=O)C(CCCCN)NC(=O)CNC(=O)[C@@H](N)CSSC[C@@H](C(=O)O)NC(=O)[C@H](CO)NC(=O)[C@H](CCCCN)NC1=O (single isomer, unassigned) here.
50

Tell us which metabolised at 2.5 h, 3.3 µM value is on record for C[C@@H]1NC(=O)[C@@H](CS)NC(=O)CNC(=O)[C@H](CO)NC(=O)[C@H](CCCCN)NC(=O)[C@H](CCCNC(=N)N)NC(=O)C(CCCCN)NC(=O)CNC1=O (single isomer, unassigned)
25

====

experiment: Inhibition of Dengue Virus 2 NS2B-NS3 protease using Benzoyl-Nle-Lys-Arg-Arg-AMC as substrate incubated for 3 mins prior to substrate addition by fluorimetric analysis; parameters: species or system dengue virus type 2
Positions of bridges follow the written chain, without caps; N, C: chain ends. Residues, ends and D or L forms follow the SMILES beside them.
measurementLabel: Ki (µM)
Note: unit µM is implicit; provide only the numeric part.

Report Ki for C[C@@H]1NC(=O)CNC(=O)[C@H](CO)NC(=O)[C@H](CCCCN)NC(=O)[C@H](CCCNC(=N)N)NC(=O)C(CCCCN)NC(=O)CNC1=O (single isomer, unassigned)
11.3

Please look at this compound and report its Ki: CC(C)C[C@@H]1NC(=O)[C@H](CCCCN)NC(=O)C(Cc2ccc(O)cc2)NC(=O)CNC(=O)[C@@H](N)CSSC[C@@H](C(=O)O)NC1=O (single isomer, unassigned)
12.5

Recall and state the measured Ki for CC(C)C[C@@H]1NC(=O)[C@H](CCCCN)NC(=O)[C@H](Cc2ccc(O)cc2)NC(=O)CNC(=O)[C@@H]2CSSC[C@H](NC1=O)C(=O)N[C@@H](Cc1cnc[nH]1)C(=O)N1C[C@H](O)C[C@H]1C(=O)N[C@H](C(=O)O)CSSC[C@H](NC(=O)[C@@H](NC(=O)CNC(=O)[C@@H](N)CC(N)=O)C(C)C)C(=O)N2 .
9

In one line, give reported Ki of the entry NCCCC[C@@H]1NC(=O)[C@H](Cc2ccc(O)cc2)NC(=O)CNC(=O)[C@@H](N)CSSC[C@@H](C(=O)O)NC(=O)CNC1=O (H-CGYKGC-OH; disulfide 1-6) .
12
